Data export: MIC values recorded with S. pyogenes 26.
Give just the number in µg/mL; leave the unit off.

Input: What value of MIC has been reported for the following compound? Cl.O=C(O)c1cn(C2CC2)c2c(OC(F)F)c(N3C[C@@H]4CCCN[C@@H]4C3)c(F)cc2c1=O (relative stereo) [Embodiment 15]
Output: 0.25

====

Below, each of the molecules is paired with its reported MIC value.
system: S. pyogenes 26

Solved entries:
molecule	MIC
COc1c(N2C[C@@H]3CCCN[C@@H]3C2)c(F)cc2c(=O)c(C(=O)O)cn(C3CC3)c12 [Moxifloxacin, moxifloxacin, reference compound]	0.5 µg/mL
Cl.O=C(O)c1cn(C2CC2)c2c(OC(F)F)c(N3C[C@@H]4CCCN[C@@H]4C3)c(F)cc2c1=O [Embodiment 13]	0.25 µg/mL
Cl.Nc1c(F)c(N2C[C@H]3CCCN[C@H]3C2)c(OC(F)F)c2c1c(=O)c(C(=O)O)cn2C1CC1 [Embodiment 18]	0.25 µg/mL
Nc1c(F)c(N2C[C@@H]3CCCN[C@@H]3C2)c(OC(F)F)c2c1c(=O)c(C(=O)O)cn2C1CC1 (relative stereo) [Embodiment 21]	0.25 µg/mL
Cl.Nc1c(F)c(N2C[C@@H]3CCCN[C@@H]3C2)c(OC(F)F)c2c1c(=O)c(C(=O)O)cn2C1CC1 [Embodiment 17]	0.25 µg/mL

Consider now this further molecule.
Input: I'm curious: which MIC was measured for Cl.O=C(O)c1cn(C2CC2)c2c(OC(F)F)c(N3C[C@H]4CCCN[C@H]4C3)c(F)cc2c1=O [Embodiment 14] tested on S. pyogenes 26?
Output: 0.5 µg/mL
